biological target: AURKA (Homo sapiens, UniProt O14965); construct: endogenous in cells; host or cells: Jurkat cells; type: cell-based; conditions: 100 nM compound, Jurkat cells, 24 h, Table 2
Sequence (O14965 whole entry): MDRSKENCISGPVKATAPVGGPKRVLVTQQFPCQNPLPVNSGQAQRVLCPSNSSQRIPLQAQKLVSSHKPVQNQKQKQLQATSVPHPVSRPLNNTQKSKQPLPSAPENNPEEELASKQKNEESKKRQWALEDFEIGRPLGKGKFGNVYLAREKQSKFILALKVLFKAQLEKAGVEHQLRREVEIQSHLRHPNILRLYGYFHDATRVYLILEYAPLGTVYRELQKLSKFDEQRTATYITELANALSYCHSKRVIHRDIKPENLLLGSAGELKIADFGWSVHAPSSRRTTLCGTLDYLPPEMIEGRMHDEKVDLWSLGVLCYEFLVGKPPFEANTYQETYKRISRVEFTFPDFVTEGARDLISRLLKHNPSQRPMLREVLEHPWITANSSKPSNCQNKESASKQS
quantity.name: Percentage of AURKA Degradation Induced by 100 nM Compound in Jurkat Cells

[
  {
    "compound": "O=C1CCN(c2ccc(N3CC4(CC(N5CCN(c6ccc(Nc7ncc8c(n7)-c7ccc(Cl)cc7C(c7nccs7)=NC8)cc6)C(=O)C5)CO4)C3)nc2)C(=O)N1 (stereo not drawn)",
    "readout.value": "+++ (Degradation > 70%)"
  },
  {
    "compound": "CC(C1CCN(c2ccc(N3CCC(=O)NC3=O)cn2)CC1)N1CCN(C23CC(Nc4ncc5c(n4)-c4ccc(Cl)cc4C(c4c(F)cccc4F)=NC5)(C2)C3)C(=O)C1 (stereo not drawn)",
    "readout.value": "+++ (Degradation > 70%)"
  }
]

====

target: AURKA (Homo sapiens); construct: endogenous in cells; host or cells: Jurkat cells; type: cell-based; conditions: 100 nM compound, Jurkat cells, 24 h, Table 2
quantity.name: Percentage of AURKA Degradation Induced by 100 nM Compound in Jurkat Cells

[
  {
    "substance.smiles": "O=C1CCN(c2ccc(N3CCC(CN4CCN(C56CC(Nc7ncc8c(n7)-c7ccc(Cl)cc7C(c7c(F)cccc7F)=NC8)(C5)C6)C(=O)C4)CC3)nc2)C(=O)N1",
    "system.tested": "AURKA (Homo sapiens)",
    "readout.value": "+++ (Degradation > 70%)"
  },
  {
    "substance.smiles": "O=C1CCN(c2ccc(N3CCN(CC4(O)CN(c5ccc(Nc6ncc7c(n6)-c6ccc(Cl)cc6C(c6c(F)cccc6F)=NC7)cc5)C4)CC3)nc2)C(=O)N1",
    "system.tested": "AURKA (Homo sapiens)",
    "readout.value": "+++ (Degradation > 70%)"
  },
  {
    "substance.smiles": "COc1cc(Nc2ncc3c(n2)-c2ccc(Cl)cc2C(c2c(F)cccc2F)=NC3)ccc1N1CC(F)(CN2CCN(c3ccc(N4CCC(=O)NC4=O)cn3)CC2)C1",
    "system.tested": "AURKA (Homo sapiens)",
    "readout.value": "+++ (Degradation > 70%)"
  }
]

====

biological target: AURKA (Homo sapiens); construct: endogenous in cells; host or cells: Jurkat cells; format: cell-based; conditions: 100 nM compound, Jurkat cells, 24 h, Table 1
quantity.name: Percentage of AURKA Degradation Induced by 100 nM Compound in Jurkat Cells

[
  {
    "substance.smiles": "COc1cc(Nc2ncc3c(n2)-c2ccc(Cl)cc2C(c2c(F)cccc2OC)=NC3)ccc1C(=O)NCCOCCNc1ccn2c(N3CCC(=O)NC3=O)cnc2c1",
    "system.tested": "AURKA (Homo sapiens)",
    "readout.value": "+ (Degradation ≤ 30%)"
  },
  {
    "substance.smiles": "COc1cc(Nc2ncc3c(n2)-c2ccc(Cl)cc2C(c2c(F)cccc2OC)=NC3)ccc1C(=O)NCCN1CCN(c2ccc(N3CCC(=O)NC3=O)cc2)CC1",
    "system.tested": "AURKA (Homo sapiens)",
    "readout.value": "+++ (Degradation > 70%)"
  },
  {
    "substance.smiles": "COc1cc(Nc2ncc3c(n2)-c2ccc(Cl)cc2C(c2c(F)cccc2OC)=NC3)ccc1C(=O)NCC1CCN(Cc2ccc(N3CCC(=O)NC3=O)cc2)CC1",
    "system.tested": "AURKA (Homo sapiens)",
    "readout.value": "+ (Degradation ≤ 30%)"
  },
  {
    "substance.smiles": "COc1cc(Nc2ncc3c(n2)-c2ccc(Cl)cc2C(c2c(F)cccc2OC)=NC3)ccc1C(=O)NC1CC2(CCN(c3ccc(N4CCC(=O)NC4=O)cc3)CC2)C1",
    "system.tested": "AURKA (Homo sapiens)",
    "readout.value": "+++ (Degradation > 70%)"
  }
]

Entry O=C1CCN(c2ccc(N3CCC4(CC3)CC(NC(=O)c3ccc(Nc5ncc6c(n5)-c5ccc(Cl)cc5C(c5c(F)cccc5F)=NC6)cc3)C4)cc2)C(=O)N1 ; Percentage of AURKA Degradation Induced by 100 nM Compound in Jurkat Cells = +++ (Degradation > 70%)

The value of Percentage of AURKA Degradation Induced by 100 nM Compound in Jurkat Cells measured for the compound O=C1CCN(c2cnc(N3CCC4(CC3)CC(NC(=O)c3ccc(Nc5ncc6c(n5)-c5ccc(Cl)cc5C(c5c(F)cccc5F)=NC6)cc3)C4)s2)C(=O)N1 turned out to be +++ (Degradation > 70%)

The measured Percentage of AURKA Degradation Induced by 100 nM Compound in Jurkat Cells associated with COc1cc(Nc2ncc3c(n2)-c2ccc(Cl)cc2C(c2c(F)cccc2OC)=NC3)ccc1C(=O)NC1CC2(CCN(c3ccc(N4CCC(=O)NC4=O)cn3)CC2)C1 reads +++ (Degradation > 70%)

Data point: O=C1CCN(c2cnc(N3CCN(CCNC(=O)c4ccc(Nc5ncc6c(n5)-c5ccc(Cl)cc5C(c5c(F)cccc5F)=NC6)cc4)CC3)s2)C(=O)N1 ; Percentage of AURKA Degradation Induced by 100 nM Compound in Jurkat Cells = +++ (Degradation > 70%)

Lab note: O=C1CCN(c2cnc3c(N4CCN(CCNC(=O)c5ccc(Nc6ncc7c(n6)-c6ccc(Cl)cc6C(c6c(F)cccc6F)=NC7)cc5)CC4)cccn23)C(=O)N1 gave Percentage of AURKA Degradation Induced by 100 nM Compound in Jurkat Cells of +++ (Degradation > 70%)

# Percentage of AURKA Degradation Induced by 100 nM Compound in Jurkat Cells of COc1cc(Nc2ncc3c(n2)-c2ccc(Cl)cc2C(c2c(F)cccc2OC)=NC3)ccc1C(=O)N1CCC2(CCN(c3ccc(N4CCC(=O)NC4=O)cc3)CC2)C1 = + (Degradation ≤ 30%)

====

Would you mind telling me the reported half-life of each entry?
assay: Mouse PK study; assay type: in vivo; conditions: mouse, plasma; PO 40 mg/kg, male CD1 mice

Reported half-life of O=C1CCN(c2ccc(N3CCC4(CC3)CC(N3CCN(C56CC(Nc7ncc8c(n7)-c7ccc(Cl)cc7C(c7c(F)cccc7F)=NC8)(C5)C6)C(=O)C3)CO4)nc2)C(=O)N1 (centres unmarked) : 1.97 h

Memo: O=C1CCN(c2ccc(N3CCO[C@H](C(=O)N4CCN(c5ccc(Nc6ncc7c(n6)-c6ccc(Cl)cc6C(c6c(F)cccc6F)=NC7)cc5)CC4)C3)nc2)C(=O)N1 , reported half-life: 2.37 h

====

target: AURKA (Homo sapiens); construct: endogenous in cells; host or cells: Jurkat cells; assay type: cell-based; conditions: 100 nM compound, Jurkat cells, 24 h, Table 2
quantity.name: Percentage of AURKA Degradation Induced by 100 nM Compound in Jurkat Cells

[
  {
    "compound": "COc1cc(Nc2ncc3c(n2)-c2ccc(Cl)cc2C(c2c(F)cccc2OC)=NC3)ccc1N1CC(CN2CCN(c3ccc(N4CCC(=O)NC4=O)cn3)CC2)C1 [Compound A261]",
    "readout.value": "+++ (Degradation > 70%)"
  },
  {
    "compound": "O=C1CCN(c2cncc(N3CC(CN4CCOc5ccc(Nc6ncc7c(n6)-c6ccc(Cl)cc6C(c6c(F)cccc6F)=NC7)cc5C4)C3)c2)C(=O)N1 [Compound A214]",
    "readout.value": "+++ (Degradation > 70%)"
  },
  {
    "compound": "O=C1CCN(c2ccc(N3CCC(CN4CC(=O)N(C56CC(Nc7ncc8c(n7)-c7ccc(Cl)cc7C(c7c(F)cccc7F)=NC8)(C5)C6)C(=O)C4)CC3)nc2)C(=O)N1 [Compound A283]",
    "readout.value": "+++ (Degradation > 70%)"
  }
]

====

experiment: Mouse PK study; type: in vivo; settings: mouse, plasma; PO 10 mg/kg, male CD1 mice; read-out: AUC0-24
Assignment: determine reported AUC(0-t) at 24 h for the given compounds.
Kindly answer with a numeric value in ng·h/mL, unit omitted.

Recorded result, O=C1CCN(c2ccc(N3CCO[C@H](C(=O)N4CCN(c5ccc(Nc6ncc7c(n6)-c6ccc(Cl)cc6C(c6c(F)cccc6F)=NC7)cc5)CC4)C3)nc2)C(=O)N1 [Compound A307] , AUC(0-t) at 24 h: 19500

Data point: O=C1CCN(c2ccc(N3CCC4(CC3)CC(N3CCN(C56CC(Nc7ncc8c(n7)-c7ccc(Cl)cc7C(c7c(F)cccc7F)=NC8)(C5)C6)C(=O)C3)CO4)nc2)C(=O)N1 (centres unmarked) [Compound A321] ; AUC(0-t) at 24 h = 41400

====

target: AURKA (Homo sapiens, UniProt O14965); construct: endogenous in cells; host or cells: Jurkat cells; assay type: cell-based; conditions: 1 µM compound, Jurkat cells, 24 h, Table 2
quantity.name: Percentage of AURKA Degradation Induced by 1 µM Compound in Jurkat Cells

Solved cases (6 shown):
[
  {
    "compound": "N#Cc1ccc2c(c1)C(c1c(F)cccc1F)=NCc1cnc(Nc3ccc(N4CC(F)(CN5CCN(c6ccc(N7CCC(=O)NC7=O)cn6)CC5)C4)cc3)nc1-2 [Compound A319]",
    "readout.value": "+++ (Degradation > 70%)"
  },
  {
    "compound": "COc1cccc(F)c1C1=NCc2cnc(Nc3ccc(N4CC(CN5CCN(c6ccc(N7CCC(=O)NC7=O)cn6)CC5)C4)cc3)nc2-c2ccc(Cl)cc21 [Compound A253]",
    "readout.value": "+++ (Degradation > 70%)"
  },
  {
    "compound": "O=C1CCN(C23CCC(N4CCN(CCNC(=O)c5ccc(Nc6ncc7c(n6)-c6ccc(Cl)cc6C(c6c(F)cccc6F)=NC7)cc5)CC4)(CC2)CC3)C(=O)N1 [Compound A91]",
    "readout.value": "+ (Degradation ≤ 30%)"
  },
  {
    "compound": "CN(CCN1CCN(c2ccc(N3CCC(=O)NC3=O)cc2)CC1)C(=O)c1ccc(Nc2ncc3c(n2)-c2ccc(C4CC4)cc2C(c2c(F)cccc2F)=NC3)cc1 [Compound A136]",
    "readout.value": "+++ (Degradation > 70%)"
  },
  {
    "compound": "COc1cc(Nc2ncc3c(n2)-c2ccc(Cl)cc2C(c2c(F)cccc2F)=NC3)ccc1N1CC(F)(CN2CCN(c3ccc(N4CCC(=O)NC4=O)cn3)CC2)C1 [Compound A289]",
    "readout.value": "+++ (Degradation > 70%)"
  },
  {
    "compound": "O=C1CCN(c2ccc(N3CCN(C(=O)C4CN(c5ccc(Nc6ncc7c(n6)-c6ccc(Cl)cc6C(c6c(F)cccc6F)=NC7)cc5)CCO4)CC3)nc2)C(=O)N1 (stereo not drawn) [Compound A308]",
    "readout.value": "+++ (Degradation > 70%)"
  }
]

Field Percentage of AURKA Degradation Induced by 1 µM Compound in Jurkat Cells (system: AURKA (Homo sapiens, UniProt O14965)) for entry O=C1CCN(c2ccc(N3CCC4(CC3)CC(N3CCN(C56CC(Nc7ncc8c(n7)-c7ccc(Cl)cc7C(c7nccs7)=NC8)(C5)C6)C(=O)C3)CO4)nc2)C(=O)N1 (stereo not drawn) [Compound A339] = +++ (Degradation > 70%)

Entry CN1CCN(CC2CCN(c3cccc(N4CCC(=O)NC4=O)c3)CC2)Cc2cc(Nc3ncc4c(n3)-c3ccc(Cl)cc3C(c3c(F)cccc3F)=NC4)ccc21 [Compound A239] , AURKA (Homo sapiens, UniProt O14965) data, Percentage of AURKA Degradation Induced by 1 µM Compound in Jurkat Cells value: +++ (Degradation > 70%)

Percentage of AURKA Degradation Induced by 1 µM Compound in Jurkat Cells on AURKA (Homo sapiens, UniProt O14965) for O=C1CCN(c2ccc(N3CCC(N4CCC(c5ccc(Nc6ncc7c(n6)-c6ccc(Cl)cc6C(c6c(F)cccc6F)=NC7)cc5)C(F)(F)C4)CC3)nc2)C(=O)N1 (stereo not drawn) [Compound A350] is +++ (Degradation > 70%)

Tested on AURKA (Homo sapiens, UniProt O14965): O=C1CCN(c2ccc(N3CCN(CC#Cc4cccc(Nc5ncc6c(n5)-c5ccc(Cl)cc5C(c5c(F)cccc5F)=NC6)c4)CC3)cc2)C(=O)N1 [Compound A99] . Observed Percentage of AURKA Degradation Induced by 1 µM Compound in Jurkat Cells: + (Degradation ≤ 30%)

For O=C1CCN(c2ccc(N3CC4(CC(N5CCN(c6ccc(Nc7ncc8c(n7)-c7ccc(Cl)cc7C(c7c(F)cccc7F)=NC8)cc6)C(=O)C5)CO4)C3)nc2)C(=O)N1 (stereo not drawn) [Compound A329] on AURKA (Homo sapiens, UniProt O14965), measured Percentage of AURKA Degradation Induced by 1 µM Compound in Jurkat Cells was +++ (Degradation > 70%)

Hey, just so you know, these numbers are from patent EP4818168A1.
